Biological target: UniProtKB P11597
Sequence (P11597 whole entry): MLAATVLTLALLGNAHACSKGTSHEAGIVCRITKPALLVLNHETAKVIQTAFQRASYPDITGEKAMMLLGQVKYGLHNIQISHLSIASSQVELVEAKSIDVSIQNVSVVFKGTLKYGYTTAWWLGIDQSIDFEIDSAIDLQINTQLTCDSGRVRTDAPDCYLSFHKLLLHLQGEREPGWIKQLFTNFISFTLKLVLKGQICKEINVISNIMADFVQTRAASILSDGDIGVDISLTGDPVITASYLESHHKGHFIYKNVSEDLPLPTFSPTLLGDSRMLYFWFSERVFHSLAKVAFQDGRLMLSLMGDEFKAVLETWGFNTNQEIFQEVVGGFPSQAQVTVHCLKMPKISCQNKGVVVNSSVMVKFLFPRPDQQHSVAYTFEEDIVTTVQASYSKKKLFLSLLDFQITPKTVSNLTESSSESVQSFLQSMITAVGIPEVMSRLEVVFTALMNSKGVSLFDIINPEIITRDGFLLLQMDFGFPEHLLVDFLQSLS
Experiment: Inhibition of recombinant CETP (unknown origin) assessed as inhibition of transfer of [3H] cholesteryl oleate or [3H] triolein between exogenous LDL and HDL in 2% human serum
Measured parameter: log10(IC50) (log10 of the value in nM)

Smiles data	Measured target	Experimental value
COc1ccc(-c2ccc(C(=O)O)cc2C)cc1-c1ccc(C(F)(F)F)cc1[C@@H]1CC[C@H]2[C@@H](c3cc(C(F)(F)F)cc(C(F)(F)F)c3)N(C)C(=O)N12	UniProtKB P11597	2.62
COc1ncc(-c2ccc(C(=O)O)cc2C)cc1-c1ccc(C(F)(F)F)nc1CN1C(=O)N[C@H](c2cc(C(F)(F)F)cc(C(F)(F)F)c2)[C@@H]1C	UniProtKB P11597	1.23
COc1ccc(CCC(=O)O)cc1-c1ccc(C(F)(F)F)cc1[C@@H]1CC[C@H]2[C@@H](c3cc(C(F)(F)F)cc(C(F)(F)F)c3)NC(=O)N12	UniProtKB P11597	2.74
COc1ncc(-c2c(C)cc(C(=O)NC3(C#N)CC3)cc2C)cc1-c1ccc(C(F)(F)F)cc1[C@@H]1CC[C@H]2[C@@H](c3cc(C(F)(F)F)cc(C(F)(F)F)c3)NC(=O)N12	UniProtKB P11597	1.74
COc1ccc([C@H]2CC[C@H](C(=O)O)CC2)cc1-c1ccc(C(F)(F)F)cc1[C@@H]1CC[C@H]2[C@@H](c3cc(C(F)(F)F)cc(C(F)(F)F)c3)NS(=O)(=O)N12	UniProtKB P11597	2.60
COc1cc(F)c(C(C)C)cc1-c1ccc(C(F)(F)F)cc1CN1C(=O)N[C@H](c2cc(C(F)(F)F)cc(C(F)(F)F)c2)[C@@H]1C	UniProtKB P11597	3.44
COc1ccc(-c2ccc(C(=O)O)cc2C)cc1-c1ccc(C(F)(F)F)cc1[C@@H]1CC[C@H]2[C@@H](c3cc(C(F)(F)F)cc(C(F)(F)F)c3)NC(=O)N12	UniProtKB P11597	2.58
COc1ncc(-c2ccc(C(=O)O)cc2C)cc1-c1ccc(C(F)(F)F)cc1CN1C(=O)N(C)[C@H](c2cc(C(F)(F)F)cc(C(F)(F)F)c2)[C@@H]1C	UniProtKB P11597	1.45
COc1ccc(-c2ccc(C(=O)O)cc2C)cc1-c1ccc(C(F)(F)F)cc1CN1C(=O)N[C@H](c2cc(C(F)(F)F)cc(C(F)(F)F)c2)[C@@H]1C	UniProtKB P11597	1.57
COc1ncc(-c2ccc(C(=O)O)cc2C)cc1-c1ccc(C(F)(F)F)cc1[C@@H]1CC[C@H]2[C@@H](c3cc(C(F)(F)F)cc(C(F)(F)F)c3)N(C)C(=O)N12	UniProtKB P11597	2.39
COc1ccc(-c2ccc(C(=O)O)cc2C)cc1-c1cnc(C(F)(F)F)cc1[C@@H]1CC[C@H]2[C@@H](c3cc(C(F)(F)F)cc(C(F)(F)F)c3)NC(=O)N12	UniProtKB P11597	2.74
COc1ccc([C@H]2CC[C@H](C(=O)O)CC2)cc1-c1ccc(C(F)(F)F)cc1[C@@H]1CC[C@H]2[C@@H](c3cc(C(F)(F)F)cc(C(F)(F)F)c3)NC(=O)N12	UniProtKB P11597	3.05
COc1ccc(-c2cccnc2C)cc1-c1ccc(C(F)(F)F)cc1[C@@H]1CC[C@H]2[C@@H](c3cc(C(F)(F)F)cc(C(F)(F)F)c3)NC(=O)N12	UniProtKB P11597	2.18
COc1ccc(-c2ccc(C(=O)O)cc2C)cc1-c1ccc(C(F)(F)F)cc1[C@@H]1CC[C@H]2[C@@H](c3cc(C(F)(F)F)cc(C(F)(F)F)c3)NS(=O)(=O)N12	UniProtKB P11597	2.13
COc1ncc(-c2ccc(C(=O)O)cc2C)cc1-c1ccc(C(F)(F)F)cc1[C@@H]1CC[C@H]2[C@@H](c3cc(C(F)(F)F)cc(C(F)(F)F)c3)NC(=O)N12	UniProtKB P11597	2.03
COc1ncc(-c2ccc(C(=O)O)cc2C)cc1-c1ccc(C(F)(F)F)cc1CN1C(=O)N[C@H](c2cc(C(F)(F)F)cc(C(F)(F)F)c2)[C@@H]1C	UniProtKB P11597	1.58
COc1ncc(-c2c(C)cc(C(=O)O)cc2C)cc1-c1ccc(C(F)(F)F)cc1[C@@H]1CC[C@H]2[C@@H](c3cc(C(F)(F)F)cc(C(F)(F)F)c3)NC(=O)N12	UniProtKB P11597	2.02
COc1ccc(-c2ccc(C(=O)O)nc2C)cc1-c1ccc(C(F)(F)F)cc1[C@@H]1CC[C@H]2[C@@H](c3cc(C(F)(F)F)cc(C(F)(F)F)c3)NC(=O)N12	UniProtKB P11597	2.67
COc1ccc(-c2ccc(C(=O)O)cc2C)cc1-c1ccc(C(F)(F)F)nc1CN1C(=O)N[C@H](c2cc(C(F)(F)F)cc(C(F)(F)F)c2)[C@@H]1C	UniProtKB P11597	1.26
